Test: Inhibition of Folyl-polyglutamate synthase from mouse liver
pKi: −log10 of the molar value.
READOUT KIND: pKi

>>> assay_value("CN(Cc1cnc2nc(N)nc(N)c2n1)c1ccc(C(=O)NC(CCS(=O)(=O)O)C(=O)O)cc1 (stereo not drawn)")
3.73

(A) CN(Cc1cnc2nc(N)nc(N)c2n1)c1ccc(C(=O)NC(CCP(=O)(O)O)C(=O)O)cc1 (stereo not drawn)
(B) Nc1nc(N)c2nc(CNc3ccc(C(=O)NC(CCS(=O)(=O)O)C(=O)O)cc3)cnc2n1 (stereo not drawn)
// which entry has the larger pKi value, A or B ? Answer by stating the label of the chosen item.
B
(B: 4.35, A: 3.73)
